assay: purified protein yield per well (BCA); higher = higher soluble expression
Below, each entry is listed with its recorded purified protein yield per well.

[
  {
    "primary-sequence": "QIGPDPTSSSLNATSGPFAVSTSNVVLARGFGGGTIYYPTTTGRYGVVAISPGFTATESSVAWLGRRLATHGLVVITINTNSTLDQPASRATQLMAALNHVVNSASSTVRSRVDSTRLAVAGHSMGGGGALIAAENNPTLKAALPLTPWNLSSSFTQVQVPTLIVGADGDSVASVAVHARPFYASLPATTFKAYAELNGASHFTPNSTNTPIGRYGTAWMKRFVDADSRYSPFLCGAPHEAYATALVFDRYNQNCPY [DP027]",
    "purified protein yield per well": "< 25 µg"
  },
  {
    "primary-sequence": "MHPTPDRAKVLPVNVSRGPAEPPAARSARPGGRSAPDGLRPGRRRPVPSSEQGATDVQSHPPTPANRRTRTVATLALALTLVGGAGAIAPTAHAAAGHERGPNPTSAALEASRGPFSVSSTTVSSLSASGFGGGTIYYPNDTGQGTFGGVIVAPGFTASRSTMAWLAERLASHGFVVFNIDTITRSDQPDSRGRQLLAAADHLAEESSPAVRSRLDAGRIGVMGHSMGGGGTLAAAESRPSLQAAVPLTPWHTDKSWGSVQVPTMIIGAENDSVAPVSSHAEPFYNSLSSAQEKAYLELNGASHFAPNSSNSTLAKYSIAWMKRFVDDDLRYDQFLCPAPGRSTRIEEYRSSCPH [TEP081]",
    "purified protein yield per well": "35.7 µg"
  },
  {
    "primary-sequence": "TPEAPAARAAENPYERGPDPTESSIEAPRGSYSVSERSVSSLSVRGFGGGTIYYPTSTADGTFGAVAISPGFTARQSSMAWYGERLASQGFVVFTIDTNTTMDQPASRGDQLLAALDYLTDDSAVRSRIDSNRLAVMGHSMGGGGSLEAAKDRPSLKAAIPLTPWNTDKSWPEVRVPTFIVGADGDSIASVRSHAEPFYESLPSSTDRAYMELRNATHFAPNSADTEIAKYSISWLKRFVDEDTRYEQFLCPIPSSDLQIAEFRGNCPH [TEP075]",
    "purified protein yield per well": "< 25 µg"
  }
]

---

experiment: PET hydrolysis, aromatic products released after 48 h (umol product/mg enzyme); higher = more PET depolymerization activity; details: substrate: cryPow; 60 °C; pH 5.5
reported-metric: PET hydrolysis

[
  {
    "primary-sequence": "APDTVVGNPFARGPDPTKESIEAERGPFAVATEKVPGGKGFGGGTIHYPTDTSQGTFGAIAVAPGFTESESAIAWYGPRLASQGFVVITISTNGLWDLPASRADQLLAALRHVTDASQIKSRVDRDRLAVMGHSMGGGGSLIAARNNPALKATIPLTGWNPNTSFSDLKVPTFVVSAQNDFIAPDGSHSRPFYQSLPASLNKAYMRLAGVGHMAPVNPNVTIAKYSISWLKRFVDNDTRYSQFLCPLPTGDPKIAAYEGTCPLS [DP008]",
    "result": "< 3"
  },
  {
    "primary-sequence": "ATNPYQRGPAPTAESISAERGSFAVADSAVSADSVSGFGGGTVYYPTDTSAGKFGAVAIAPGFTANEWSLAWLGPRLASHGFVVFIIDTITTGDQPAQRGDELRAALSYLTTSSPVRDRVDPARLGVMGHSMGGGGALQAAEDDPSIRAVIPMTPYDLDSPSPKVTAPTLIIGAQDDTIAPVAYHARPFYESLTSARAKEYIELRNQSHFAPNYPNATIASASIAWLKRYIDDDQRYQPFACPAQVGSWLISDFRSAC [DP034]",
    "result": "< 3"
  }
]

---

assay: PET hydrolysis, aromatic products released after 48 h (umol product/mg enzyme); higher = more PET depolymerization activity; settings: substrate: cryPow; 40 °C; pH 6.5
Recorded PET hydrolysis values for a group of sequences are listed next.
reported-metric: PET hydrolysis

[
  {
    "primary-sequence": "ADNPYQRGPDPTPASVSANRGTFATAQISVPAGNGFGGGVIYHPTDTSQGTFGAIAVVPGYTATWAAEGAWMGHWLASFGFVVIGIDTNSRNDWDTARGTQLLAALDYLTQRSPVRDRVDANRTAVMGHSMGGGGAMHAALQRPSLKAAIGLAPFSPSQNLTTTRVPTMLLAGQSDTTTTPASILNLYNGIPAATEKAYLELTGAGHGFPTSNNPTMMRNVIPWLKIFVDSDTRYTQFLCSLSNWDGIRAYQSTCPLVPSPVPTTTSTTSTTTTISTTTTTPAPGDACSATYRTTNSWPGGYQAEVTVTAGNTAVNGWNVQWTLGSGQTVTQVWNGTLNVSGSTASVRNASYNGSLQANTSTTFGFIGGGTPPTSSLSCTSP [ESM035]",
    "reported-metric": "PET hydrolysis",
    "quantitative-result": 7
  },
  {
    "primary-sequence": "QSNPYERGPAPTESSIEATRGSFSVSDKNVSSFSASGFGGGTIYYPTDTSQGTFGGVAISPGFTAGESSIAWLGPRIASQGFVVITIDTNSRYDQPNSRADQLQAALDHIVADSTVGSRIDPNRLAVMGHSMGGGGSLKAAEDNADLQAAVPLQPWHTQKNWSDVEVPTLIIGAENDSVASVTTHSKPFYTSLPDDLDKAYLELDGASHFVSNTPDTTTAKYSISWLKRFVDDDTRYEQFLCPAPDDRTISEYRDTCPHSGGGGTTPTTTPTTLPPDDDCAWWQWWC [DP057]",
    "reported-metric": "PET hydrolysis",
    "quantitative-result": 10
  }
]

---

assay: PET hydrolysis, aromatic products released after 48 h (umol product/mg enzyme); higher = more PET depolymerization activity; conditions: substrate: cryPow; 40 °C; pH 4.5
reported-metric: PET hydrolysis

[
  {
    "primary-sequence": "ADNPYQRGPDPTPQSISAPTGPFATASVTVPRQGNFGGGVIYYPTDTSQGTFGAVAISPGLNGTWPGIAWLGPRLSSQGFVVFGIDTLGLSDSTASRGSQLLAALDYLTQTSSVRTRVDSSRLAVAGHSMGGGGAFEAALRRPALKAAIPNAPFFPGSASNVRVPTLITAMQNDSLVGQNRNAYNGIPAGVEKAYVELAGAGHNQIGQPTTAIARNWIPWLKIFVDSDARYHQFLCPTTDMSGLSQYLNTCPLISTTPPTSSPSAQPTTPGPTGPPPGGACAATYRTVNSWSDGYQGEMTVQAGSSAINGWTVRWTMSGGQTISQVWNGTLVAGSGAAAVRNVAYNGSLAAGASTTFGFISSGTPSATSITCGSP [ESM081]",
    "reported-metric": "PET hydrolysis",
    "result": 4
  },
  {
    "primary-sequence": "TDNPHQRGPNPSQASISANRGTFATAETSVGSGNGFGAAKIYYPTDTGQGTFGAIAVSPGYTATWAAEGAWMGHWLASFGFVVIGIDTINRNDFDVARGTQLLAALDYLTQRSSVRTRVDPSRLAVMGHSMGGGGTISAALRRPTLKAAIGLAPYSPSQTTTGMQVPTVLLAGQNDGTSTPASIITLHNNIPASTEKAYLELTGAGHGFPTSNNSVVTRKVIPWMKIFIDQDTRYTQFLCPLQDWTGIRSYRNSCPLLPNDPGTTFSLAGSASGKCVDVPGRVQTNGTGLIIWTCNGAANQHWTRTAAGELRIYGNSKCMDASGQGARVTINSCNGGSGQKWTVGTNGTVTNAASAGCLDTGGTADNAPVIVTTCNGGSGQIWIKRS [ESM184]",
    "reported-metric": "PET hydrolysis",
    "result": "< 3"
  },
  {
    "primary-sequence": "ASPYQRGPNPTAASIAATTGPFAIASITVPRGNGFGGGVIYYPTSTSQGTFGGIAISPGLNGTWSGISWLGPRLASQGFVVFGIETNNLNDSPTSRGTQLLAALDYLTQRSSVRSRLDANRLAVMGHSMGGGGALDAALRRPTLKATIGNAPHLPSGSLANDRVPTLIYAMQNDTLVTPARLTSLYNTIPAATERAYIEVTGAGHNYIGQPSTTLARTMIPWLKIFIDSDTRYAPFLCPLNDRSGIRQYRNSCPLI [ESM128]",
    "reported-metric": "PET hydrolysis",
    "result": "< 3"
  }
]

---

experiment: PET hydrolysis, aromatic products released after 48 h (umol product/mg enzyme); higher = more PET depolymerization activity; details: substrate: cryPow; 60 °C; pH 6.5

[
  {
    "primary-sequence": "CATAGSALVSAPSLSGDGSYEVQTYTDFPDVPEFGAATIYYPVGASEPMGGVAIAPGFTEEQRHIAWWGPRLASHGYAVLVLDTNDRRERPDARADALIAGVTLLRAEGRRRGSPLFGRIDAAKMAIMGHSMGGGGALLAADEHSDLIRAAIPFTPWEPETDLRGISAPTLVLAGAADRVAEVEGHAWRHFSMIPESTPKVYMEIAGGDHYIADTTRGMDLATVGRYAIAWLKLYVDGDEQYRDLIYGEIPPADAAKFSRYVVNP [TEP157]",
    "PET hydrolysis": "< 3"
  },
  {
    "primary-sequence": "AEAADNPYQRGPDPTLASVAATRGPFATAQATVPAGNGFNGGYVYYPTDTSLGTWGAVAIVPGYSALFADEEAWMGPWLASFGFVVLGIETNSRTDGADARATQLLAALDYLTQSSPVRHRVDANRLGVMGHSAGGAGTLMAALRRPSLKSAVGLAPGAPGNSLNMSTTQVPTMLISGQNDGTVTPSYVQGIYNTLPATVEHAWAELAGNDHLSFTRPNPTEMRILIPWLKIFLDNDTRYTQFLCPLADSTGVSRYSATCPLVPPGGPTAPPTVTPPPPTPTTPSPTTPPTSAACTATYRTVNSWSGGFQGEVTVTAGRAAINGWTVRWDLGNGQSISQVWNGTLSTSGSTATVRNVSYNGSLAPAASTGFGFLGTGAPAIPRLTCTSP [ESM037]",
    "PET hydrolysis": "< 3"
  },
  {
    "primary-sequence": "MRPGRVCPDSCGCRPSSRRKDATIVQQLRNETIGSPSPHRAPRRFRPRLVRAGLAALLAAGGLFTAQSGSAGAAQNPYERGPAPTVSSIEAPRGPYAVSETRVSSLGVTGFGGGTLYYPTTTRDGTFGAVAISPGYGGTQSSISWLGPRLASQGFVVFTIDTLSTLDQPAGRGGQLLAALDYLTQRSSVRDRVDSGRLGVMGHSMGGGGSLEAAKSRPALQAAIPLTGWNLDKTWQELRTPTLVVGADGDTIAPVSSHSEPFYESLAGSLDKAYLELNGASHFTPNSSNTTIAKYSVSWLKRFIDNDLRYEQFLCPLPRPGATIEEYRGNCPHTS [TEP099]",
    "PET hydrolysis": "< 3"
  },
  {
    "primary-sequence": "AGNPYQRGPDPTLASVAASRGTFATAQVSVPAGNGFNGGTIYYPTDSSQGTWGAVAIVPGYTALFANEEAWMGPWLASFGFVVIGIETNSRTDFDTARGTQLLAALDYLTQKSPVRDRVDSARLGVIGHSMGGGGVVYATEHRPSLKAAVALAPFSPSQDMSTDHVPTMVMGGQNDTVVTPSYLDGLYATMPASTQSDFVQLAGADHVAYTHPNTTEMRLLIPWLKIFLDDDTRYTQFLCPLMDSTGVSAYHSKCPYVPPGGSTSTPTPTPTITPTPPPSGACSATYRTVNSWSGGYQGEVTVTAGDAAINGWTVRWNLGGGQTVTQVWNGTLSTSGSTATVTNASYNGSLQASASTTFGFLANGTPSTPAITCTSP [TEP114]",
    "PET hydrolysis": 1.5
  }
]
